Test system: LXRb:RXRa (NR concentration 270 nM, RXRa partner concentration 90 nM)
Experiment: PBM binding z-score (relative to random genomic background probes); higher = stronger binding; sequences stand for … in GC…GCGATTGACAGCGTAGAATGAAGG
property: PBM binding z-score

INSERT INTO assay_data (query_sequence, val) VALUES
  ('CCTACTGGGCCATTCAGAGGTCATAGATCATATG', 3.75),
  ('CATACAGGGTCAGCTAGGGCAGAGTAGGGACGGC', 2.23),
  ('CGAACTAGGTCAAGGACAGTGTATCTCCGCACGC', 1.57),
  ('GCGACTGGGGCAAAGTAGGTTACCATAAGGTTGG', 0.557),
  ('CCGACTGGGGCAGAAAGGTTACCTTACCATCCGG', 0.547),
  ('CCTTACGGGTCACTCCAGTTTATAGCATCGGAGT', 3.77),
  ('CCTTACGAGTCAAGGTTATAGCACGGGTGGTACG', 0.739),
  ('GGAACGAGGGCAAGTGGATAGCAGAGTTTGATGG', 0.0624),
  ('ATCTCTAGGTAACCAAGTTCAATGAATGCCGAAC', 1.34),
  ('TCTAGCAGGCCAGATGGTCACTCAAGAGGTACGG', -1.05),
  ('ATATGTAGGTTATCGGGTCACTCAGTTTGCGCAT', 2.89),
  ('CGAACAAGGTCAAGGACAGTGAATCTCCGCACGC', 3.78),
  ('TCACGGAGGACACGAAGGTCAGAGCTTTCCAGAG', 0.963),
  ('CTCGAAAGTTCGTGCTCAGGTGAGTATACCAAAC', 1.03),
  ('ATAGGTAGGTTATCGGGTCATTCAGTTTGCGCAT', 3.17),
  ('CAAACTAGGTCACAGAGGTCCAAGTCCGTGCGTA', 2.32),
  ('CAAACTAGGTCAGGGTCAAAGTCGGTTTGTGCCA', 4.16),
  ('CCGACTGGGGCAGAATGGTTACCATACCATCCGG', -0.838),
  ('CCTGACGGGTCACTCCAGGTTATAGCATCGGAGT', 4.58),
  ('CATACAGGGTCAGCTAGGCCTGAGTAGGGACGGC', 1.79),
  ('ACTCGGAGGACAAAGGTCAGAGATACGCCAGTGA', 3.54),
  ('ATATGTAGGTTACATCCGGTTCATTCAGGCTATG', 2.07),
  ('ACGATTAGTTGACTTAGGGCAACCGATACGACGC', 0.0402),
  ('CCAGACAGGTGAAATGTAACTCAGTCTGGTACGC', 0.217),
  ('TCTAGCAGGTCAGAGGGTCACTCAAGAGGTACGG', 2.87),
  ('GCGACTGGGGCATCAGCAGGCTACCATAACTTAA', -0.378),
  ('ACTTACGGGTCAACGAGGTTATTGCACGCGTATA', 4.44),
  ('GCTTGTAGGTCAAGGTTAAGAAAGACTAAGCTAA', 3.16),
  ('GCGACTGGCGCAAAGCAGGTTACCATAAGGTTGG', -0.683),
  ('TCGAGTAGGATAGGGGCATTCAGAATGGCGTCGA', 0.283),
  ('AGAACGAGGGCACGCTAAGTTGATAGCAGAGTAG', 0.353),
  ('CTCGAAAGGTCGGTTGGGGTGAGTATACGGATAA', 2.86),
  ('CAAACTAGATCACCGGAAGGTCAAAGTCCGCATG', 3.19),
  ('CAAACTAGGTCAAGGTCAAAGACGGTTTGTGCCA', 4.37),
  ('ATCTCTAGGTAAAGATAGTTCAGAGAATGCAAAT', 0.69),
  ('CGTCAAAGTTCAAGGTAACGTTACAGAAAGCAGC', 3.64);

* * *

Measured PBM binding z-score accompanies every entry in the list below.
Test system: THRa homodimer (NR concentration 90 nM)
Assay: PBM binding z-score (relative to random genomic background probes); higher = stronger binding; sequences stand for … in GC…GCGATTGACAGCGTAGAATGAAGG
property: PBM binding z-score

INSERT INTO measurements (query_sequence, val) VALUES
  ('TCTATTAGATGATTAGGGCAACCGAAACAGCGGA', -0.055),
  ('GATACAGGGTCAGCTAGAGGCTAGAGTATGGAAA', 0.194),
  ('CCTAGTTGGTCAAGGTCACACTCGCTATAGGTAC', 4.03),
  ('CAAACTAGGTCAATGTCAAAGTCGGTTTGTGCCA', 0.861),
  ('ATCGAAAGGTCTTGAGGTGAGTATACAGAAAGGC', 1.21),
  ('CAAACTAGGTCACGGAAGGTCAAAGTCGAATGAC', 2.79),
  ('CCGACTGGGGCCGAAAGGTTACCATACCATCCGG', -0.247),
  ('TCTAGTTGGTCAGAGGTCACACACTCGAAATGCG', 2.52),
  ('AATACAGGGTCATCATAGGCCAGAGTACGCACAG', 1.78),
  ('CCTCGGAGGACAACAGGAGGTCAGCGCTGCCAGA', 1.31);

* * *

Tested on: PPARa:RXRa (NR concentration 270 nM, RXRa partner concentration 90 nM)
Assay: PBM binding z-score (relative to random genomic background probes); higher = stronger binding; sequences stand for … in GC…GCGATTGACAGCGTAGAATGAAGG
Use rule met when the recorded PBM binding z-score is no lower than 5; use rule not met when it is lower.

INSERT INTO assay_data (query_sequence, class_name) VALUES
  ('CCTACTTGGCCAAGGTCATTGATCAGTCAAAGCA', 'rule not met'),
  ('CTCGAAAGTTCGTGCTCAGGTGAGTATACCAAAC', 'rule not met'),
  ('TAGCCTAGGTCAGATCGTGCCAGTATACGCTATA', 'rule not met'),
  ('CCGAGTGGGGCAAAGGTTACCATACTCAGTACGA', 'rule met'),
  ('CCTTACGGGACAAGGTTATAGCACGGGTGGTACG', 'rule not met'),
  ('AAAACAGGGTCACTAGGCCAGAGTAGGTACGAAT', 'rule met'),
  ('ACTAGTTGGTCAGCTTAGGTCACACACAATTCGG', 'rule not met');

* * *

System: RXRa homodimer (NR concentration 180 nM)
Assay: PBM binding z-score (relative to random genomic background probes); higher = stronger binding; sequences stand for … in GC…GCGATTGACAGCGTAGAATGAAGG
Use Satisfied when the recorded PBM binding z-score is no lower than 1; use Not satisfied when it is lower.

INSERT INTO measurements (query_sequence, class_name) VALUES
  ('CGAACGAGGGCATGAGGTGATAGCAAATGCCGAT', 'Satisfied'),
  ('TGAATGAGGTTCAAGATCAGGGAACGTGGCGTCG', 'Satisfied'),
  ('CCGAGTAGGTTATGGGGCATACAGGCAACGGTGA', 'Not satisfied'),
  ('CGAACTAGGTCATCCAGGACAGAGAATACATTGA', 'Satisfied'),
  ('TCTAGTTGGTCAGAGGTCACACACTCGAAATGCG', 'Satisfied'),
  ('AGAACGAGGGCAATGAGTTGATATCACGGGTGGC', 'Satisfied'),
  ('CAAACTGGGTCAAGAGGTCAAAGTCCGCTTCCCG', 'Satisfied'),
  ('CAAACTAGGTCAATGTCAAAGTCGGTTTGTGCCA', 'Satisfied'),
  ('ATCGAAAGGTCGGAGGTGAGTATACCCACCCGAA', 'Satisfied'),
  ('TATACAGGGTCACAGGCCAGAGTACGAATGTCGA', 'Satisfied'),
  ('CCCTACGGGTCAAGGTTATAGCACGGGTGGTACG', 'Satisfied'),
  ('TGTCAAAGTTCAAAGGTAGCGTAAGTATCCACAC', 'Satisfied'),
  ('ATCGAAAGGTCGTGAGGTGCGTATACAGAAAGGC', 'Satisfied'),
  ('TCTATTAGTTGATTAGGGCAAGCGAAACAGCGGA', 'Not satisfied'),
  ('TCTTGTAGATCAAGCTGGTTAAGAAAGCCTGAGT', 'Not satisfied'),
  ('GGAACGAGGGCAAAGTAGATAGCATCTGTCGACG', 'Satisfied'),
  ('TCTAGCAGGCCAGAGGGTTACTCAAGAGGTACGG', 'Not satisfied'),
  ('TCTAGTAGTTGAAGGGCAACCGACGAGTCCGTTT', 'Not satisfied'),
  ('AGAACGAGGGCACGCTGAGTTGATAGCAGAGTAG', 'Satisfied'),
  ('CGAACGATGGCATGAGTTGATAGCAAATGCCGAT', 'Not satisfied'),
  ('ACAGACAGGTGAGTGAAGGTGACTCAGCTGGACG', 'Not satisfied'),
  ('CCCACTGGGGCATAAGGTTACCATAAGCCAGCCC', 'Satisfied'),
  ('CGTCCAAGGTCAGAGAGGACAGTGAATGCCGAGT', 'Satisfied'),
  ('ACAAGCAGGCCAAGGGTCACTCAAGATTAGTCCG', 'Satisfied'),
  ('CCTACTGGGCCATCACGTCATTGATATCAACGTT', 'Not satisfied'),
  ('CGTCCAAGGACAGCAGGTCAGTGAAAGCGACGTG', 'Not satisfied'),
  ('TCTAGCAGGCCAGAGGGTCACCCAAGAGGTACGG', 'Satisfied'),
  ('CGAACTAGGGCATCCAGGACAGTGAATACATTGA', 'Not satisfied'),
  ('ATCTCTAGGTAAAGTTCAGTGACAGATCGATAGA', 'Satisfied'),
  ('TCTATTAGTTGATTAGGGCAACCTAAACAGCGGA', 'Not satisfied'),
  ('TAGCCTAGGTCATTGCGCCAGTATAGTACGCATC', 'Satisfied'),
  ('CGAAATAGGTCATTGACAGGACAGTGAATAGTAA', 'Satisfied'),
  ('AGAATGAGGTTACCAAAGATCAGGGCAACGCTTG', 'Satisfied'),
  ('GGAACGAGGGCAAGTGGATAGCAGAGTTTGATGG', 'Not satisfied'),
  ('TAGCCTAGATCATGCGGGCCAGTATAGTGTCGGC', 'Not satisfied'),
  ('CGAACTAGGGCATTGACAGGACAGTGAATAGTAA', 'Not satisfied'),
  ('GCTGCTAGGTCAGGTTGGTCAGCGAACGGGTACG', 'Satisfied'),
  ('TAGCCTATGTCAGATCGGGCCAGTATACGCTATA', 'Not satisfied'),
  ('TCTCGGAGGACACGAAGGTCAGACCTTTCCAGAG', 'Satisfied'),
  ('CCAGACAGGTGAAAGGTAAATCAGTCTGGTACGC', 'Satisfied');
